System: NCI-H23 lung
ASSAY_PROTOCOL: NCI tumour cell line growth inhibition, 48 h
Listing of entries alongside the reported TGI.
Only the number, expressed in µM, is required.

O=C1OCC2=C1C(c1cccc(Br)c1)c1cc3c(cc1N2CCO)CCC3 (stereo not given); 8.42

Turning now to a further record.
Reported TGI of Cc1[nH]nc(C(F)(F)F)c1N=NN1CCOCC1 : 15.5

###

Test system: OVCAR-4 ovarian
ASSAY_PROTOCOL: NCI tumour cell line growth inhibition, 48 h
Assign class by TGI: not lower than 30 µM means met; lower than 30 µM means not met.

CC#CCOC(=O)c1ccccc1OC(C)=O; met
COc1cc2c(C)cc(O)cc2c2cc(O)c(C)cc12; not met
O=C(Nc1nc(=S)c2c(ncn2CCOC(=O)c2ccccc2)[nH]1)c1ccccc1; met

Now turn to the next compound.
Query string: TGI >= 30 µM for COc1ccc(/C=C2\N=C(SC)N(CN3CCOCC3)C2=O)cc1 ?
Result string: met
